Recorded log10 IC50 by entry
- subject of test: SARS-CoV-2 Main Protease (SARS-CoV-2) (UniProt P0DTD1)
Note the log scale: values are log10 of IC50 expressed in µM.

Field: example entries. Status: answers known.
[
  {
    "molecule": "CC(C)(C)c1ccc(N(C(=O)c2cocn2)C(C(=O)NCC(=O)OCc2ccccc2)c2cccnc2)cc1 (centres undefined)",
    "subject of test": "SARS-CoV-2 Main Protease (SARS-CoV-2) (UniProt P0DTD1)",
    "quantity": "log10 IC50",
    "numeric readout": 1.00
  },
  {
    "molecule": "O=C(c1cc(=O)[nH]c2ccccc12)N1CCN(Cc2ccccc2)CC1",
    "subject of test": "SARS-CoV-2 Main Protease (SARS-CoV-2) (UniProt P0DTD1)",
    "quantity": "log10 IC50",
    "numeric readout": 0.94
  },
  {
    "molecule": "O=C(Cc1cc(Cl)cc(Nc2c(F)cccc2Br)c1)Nc1cncc2ccccc12",
    "subject of test": "SARS-CoV-2 Main Protease (SARS-CoV-2) (UniProt P0DTD1)",
    "quantity": "log10 IC50",
    "numeric readout": 0.53
  },
  {
    "molecule": "Cn1ccc2cc(N(C(=O)c3cocn3)C(C(=O)NCCc3cccc(F)c3)c3cccnc3)ccc21 (centres undefined)",
    "subject of test": "SARS-CoV-2 Main Protease (SARS-CoV-2) (UniProt P0DTD1)",
    "quantity": "log10 IC50",
    "numeric readout": 1.38
  },
  {
    "molecule": "O=C(Cc1cc(Cl)cc(NCc2ccc(OC(F)(F)F)cc2)c1)Nc1cncc2ccccc12",
    "subject of test": "SARS-CoV-2 Main Protease (SARS-CoV-2) (UniProt P0DTD1)",
    "quantity": "log10 IC50",
    "numeric readout": 0.74
  },
  {
    "molecule": "CS(=O)(=O)c1ccc2cncc(NC(=O)C3CNC(=O)c4c(F)cc(F)cc43)c2c1 (centres undefined)",
    "subject of test": "SARS-CoV-2 Main Protease (SARS-CoV-2) (UniProt P0DTD1)",
    "quantity": "log10 IC50",
    "numeric readout": 0.56
  },
  {
    "molecule": "O=C(CN1CC(C(=O)Nc2cncc3cc(F)ccc23)c2cc(Cl)ccc2C1=O)NCC1CC1 (centres undefined)",
    "subject of test": "SARS-CoV-2 Main Protease (SARS-CoV-2) (UniProt P0DTD1)",
    "quantity": "log10 IC50",
    "numeric readout": -0.67
  },
  {
    "molecule": "CNC(=O)CN1CC(C)(C(=O)Nc2cncc3cc(F)ccc23)c2cc(Cl)ccc2S1(=O)=O (centres undefined)",
    "subject of test": "SARS-CoV-2 Main Protease (SARS-CoV-2) (UniProt P0DTD1)",
    "quantity": "log10 IC50",
    "numeric readout": -0.61
  }
]

Qu. For the molecule Cc1ccc(S(=O)(=O)NC2CCN(C(=O)CCl)CC2)cc1 , give its reported log10 IC50.
Ans. 1.53

Qu. Annotate the molecule Cc1nnc(CN2Cc3ccc(Cl)cc3C(C(=O)Nc3cncc4ccccc34)C2)[nH]1 (centres undefined) with its measured log10 IC50.
Ans. -0.12

Qu. Tell us which log10 IC50 value is on record for CC(C)N(C)S(=O)(=O)N1Cc2ccc(Cl)cc2C(C(=O)Nc2cncc3ccccc23)C1 (centres undefined)
Ans. -0.90
